- Tested on: NCI-H522 lung
- Method Description: NCI-60 one-dose screen, 48 h
- Condition Details: 10 µM unless noted
About 83,000 compounds went through this panel and 20% of them were active in at least one assay; those are over-represented in the sample as a whole. Activity calls are given as the source filed them. How the source made its calls: active means growth percent below 10; inactive means the rest.
Please state which outcome applies, choosing from TRUE for active, FALSE for inactive

Record excerpt, results attached:
| Compound | Category |
| --- | --- |
| O=C(NCCCCNC(=O)OCc1ccc2c(Cl)cc(Cl)c(O)c2n1)OCc1ccc2c(Cl)cc(Cl)c(O)c2n1 | TRUE |
| COc1cccc(/C=C/C(=O)c2cc3c(N)c(C(=O)Nc4ccccc4)sc3nc2C)c1 | TRUE |
| Oc1ccc(CCn2c(O)c(/C=C3\CN=c4ccccc4=N3)sc2=S)cc1 | FALSE |

Q) // return assay outcome for Cc1ccc(-c2nn(-c3ccccc3)cc2C=C2C(=O)ON=C2C(C)C)cc1
A) FALSE

====

Quick reference: growth of the listed items.
- Tested on: IGROV1 ovarian
- Method Description: NCI-60 one-dose screen, 48 h (100 = growth as untreated, 0 = no growth, -100 = all killed)
- Condition Details: 10 µM unless noted
Compounds without any hit were thinned out: in the full panel of roughly 83,000, 20% have a hit.
Report the figure in % without appending any unit label.

Q) # value lookup — system IGROV1 ovarian, readout growth, item O=C1/C(=C\c2cn(-c3ccccc3)nc2-c2ccc(-c3cccs3)cc2)CCc2ccccc21
A) 56.5

Q) Same for COc1ccc2nc3ccc(OC)cc3c(SCCCN)c2c1
A) 97.2

Q) Same for COc1ccc2nc(NC(=O)CSc3nnc4n3S(=O)(=O)c3ccccc3N4C)sc2c1
A) 12.9

Q) Same for N#C/C(=C\c1ccc(-c2ccc(Cl)cc2)o1)C(=O)Nc1ncc(Cc2ccc(Cl)cc2)s1
A) 28.3

Q) Same for CC[C@@H](C(=O)[C@@H](C)[C@@H](O)[C@H](C)[C@@H]1O[C@@H]([C@@H](CC)C(=O)NCCc2ccc(F)cc2)CC[C@@H]1C)C1O[C@]2(C=CC(=O)[C@]3(CC[C@@](C)([C@H]4CC[C@](O)(CC)[C@H](C)O4)O3)O2)[C@H](C)C[C@@H]1C (some centres undefined)
A) 26.3

Q) Same for C[C@@H]1CCC[C@H]1CC(N)C(=O)O (some centres undefined)
A) 114

Q) Same for O=C(c1cc2ccccc2o1)c1nn(-c2ccccc2)/c(=N/N=Cc2cn(-c3ccccc3)nc2-c2cc3ccccc3oc2=O)s1
A) 99.1

Q) Same for O=C(/C=C/c1cccs1)c1ccc(Cl)nc1
A) 107

Q) Same for COc1ccc2[nH]cc(-c3nc(-c4cn(C)c5c(Cl)nccc45)cs3)c2c1
A) 71.3

Q) Same for COc1cc(-c2cc(-c3cccs3)c(C#N)c(N3CCOCC3)n2)cc(OC)c1OC
A) 73.5

====

- System: ACHN renal
- Method Description: NCI-60 one-dose screen, 48 h
- Condition Details: 10 µM unless noted
- Protocol: Growth inhibition of the ACHN human tumor cell line is measured as a screen for anti-cancer activity. Cells are grown in 96 well plates and exposed to the test compound for 48 hours. Compounds are tested at a single concentration, which is 10^-5 M for most compounds. The reported endpoint is percent growth (GI% or GIPRCNT), where numbers from 0 - 100% represent growth inhibition, and numbers from -100% - 0 represent cell death. For example, a value of 40 represents 60% growth inhibition. […]
About 83,000 compounds went through this panel and 20% of them were active in at least one assay; those are over-represented in the sample as a whole. Calls of active or inactive are those of the source. Rule for the calls: active = growth percent below 10; inactive = the rest.
Please state which outcome applies, choosing from active, inactive

Record excerpt, results attached:
| Compound | Category |
| --- | --- |
| COC1C[C@H](O[C@@H]2C[C@H](O[C@@H]3C[C@H](O[C@@H]4C(=O)c5c(cc6cc(O[C@H]7C[C@@H](O[C@H]8C[C@@H](O)[C@H](O)C(C)O8)[C@H](O)C(C)O7)c(C)c(O)c6c5O)C[C@H]4C(OC)C(=O)[C@@H](O)[C@@H](C)O)OC(C)[C@H]3O)OC(C)[C@@H]2O)OC(C)[C@@H]1O (stereo partly specified) | active |
| CC(O)c1cnc(/C=C2\SC(=S)N(Cc3ccccc3)C2=O)s1 (stereo unspecified) | inactive |
| CC(C)=CCC[C@](C)(O)[C@H]1CC[C@]2(C)[C@@H]1CC[C@@H]1[C@@]3(C)Cc4nccnc4C(C)(C)[C@@H]3CC[C@]12C | inactive |
| N#Cc1cccc(F)c1 | inactive |
| Cc1cccnc1NC(=S)Nc1ncccc1C | inactive |

Q) // return assay outcome for CCOC(=O)/C=C1\S/C(=N\Nc2cc(=O)[nH]c3ccc(Cl)cc23)N(c2ccccc2)C1=O
A) inactive

Q) Same for O=C(c1ccc(-c2nc(CSc3nc4ccccc4s3)no2)cc1)N1CCSCC1
A) inactive

Q) Same for C#COc1cccc(Nc2ncnc3ncc(NC(=O)CCl)cc23)c1
A) active

Q) Same for COc1cc(/C=C\c2cc(/C=C\c3ccc(O)c(OC)c3)n(C(=O)COc3ccc(Cl)cc3Cl)n2)ccc1O
A) inactive

Q) Same for C#CCn1cnc2c(Nc3cccc(NC(=O)C=C)c3)ncnc21
A) inactive
